tested on: HepG2; assay: cell viability relative to DMSO; higher = less toxic; conditions: 72 h; 1 nM
Kindly supply the reported cell viability values for the records listed here.
Give bare numbers, in %.

Please review the following examples before continuing.
>  <Compound>
CC(C)C(=O)Nc1ccc([N+](=O)[O-])c(C(F)(F)F)c1 [flutamide]

>  <Measured target>
HepG2

>  <Endpoint>
cell viability

>  <Experimental value>
94.5

$$$$
>  <Compound>
CNC(C)(C)Cc1ccccc1

>  <Measured target>
HepG2

>  <Endpoint>
cell viability

>  <Experimental value>
102

$$$$

Need cell viability for each of these compounds.
1. FC(F)(F)c1ccc(CNc2ccc(Cc3c[nH]c4ncccc34)cn2)cc1
2. COc1cc(N2CCOCC2)ccc1Nc1ncc(Cl)c(Nc2ccccc2NS(C)(=O)=O)n1
3. CCN(CC)CCN[C@@H](C(=O)OCCC(C)C)c1ccccc1 [camylofine-chlorhydrate]
4. CC1Sc2c(C(=O)O)c(=O)c3cc(F)c(N4CCNCC4)cc3n21 (stereo not drawn)
5. COC(=O)Nc1ccc2[nH]cc(CCNC(C)=O)c2c1
6. CCCCCC(=O)O[C@]1(C(C)=O)CC[C@H]2[C@@H]3CCC4=CC(=O)CC[C@]4(C)[C@H]3CC[C@@]21C [17-hydroxyprogesterone-caproate]
7. Cc1cc(C)cc(C(=O)NOCCCCCC(=O)NO)c1
8. Cc1nnc2ccc(-c3cccc(C(F)(F)F)c3)nn12

1. 100
2. 103
3. 106
4. 112
5. 102
6. 97.1
7. 95.1
8. 107

* * *

test system: A549-ACE2 infected with SARS-CoV-2; test: morphology score (similarity to uninfected cells); higher = more like uninfected cells; settings: 3 µM; 24 h
Kindly supply the reported morphology score values for the records listed here.
Answers are plain numbers.

Please review the following examples before continuing.
>  <Molecule>
CCCCCC(=O)O[C@]1(C(C)=O)CC[C@H]2[C@@H]3CCC4=CC(=O)CC[C@]4(C)[C@H]3CC[C@@]21C [17-hydroxyprogesterone-caproate]

>  <Endpoint>
morphology score

>  <Experimental value>
0.34

$$$$
>  <Molecule>
COc1cc(C(=O)NC2CCN(C)CC2)c(F)cc1Nc1ncc2c(n1)N(C1CCCC1)CC(F)(F)C(=O)N2C

>  <Endpoint>
morphology score

>  <Experimental value>
0.58

$$$$
>  <Molecule>
COc1ccc2cc1Oc1ccc(cc1)C[C@H]1c3cc(c(OC)cc3CCN1C)Oc1c(OC)c(OC)cc3c1[C@H](C2)N(C)CC3

>  <Endpoint>
morphology score

>  <Experimental value>
0.79

$$$$

Entry `Cc1ccc(C(=O)Nc2cccc(C(F)(F)F)c2)cc1Nc1nc(-c2cccnc2)nc2c1cnn2C` — recorded morphology score = 0.35

* * *

test system: U2OS; experiment: cell viability relative to DMSO; higher = less toxic; conditions: 72 h; 10000 nM
Kindly supply the reported cell viability values for the records listed here.
Give bare numbers, in %.

Please review the following examples before continuing.
>  <Compound>
O=C(O)CCC(=O)C(=O)O

>  <cell viability [%]>
99.3

$$$$
>  <Compound>
C[N+](C)(C)NCCC(=O)O

>  <cell viability [%]>
101

$$$$
>  <Compound>
Cc1c(C(=O)Nc2ccc(N3C[C@@H](C)O[C@@H](C)C3)nc2)cccc1-c1ccc(OC(F)(F)F)cc1

>  <cell viability [%]>
87.3

$$$$
>  <Compound>
O=C(NCCCN1CCOCC1)c1cnn2c(-c3ccccc3)cc(-c3ccccc3)nc12

>  <cell viability [%]>
85.8

$$$$

Need cell viability for each of these compounds.
1. Cc1ccc([N+](=O)[O-])cc1S(=O)(=O)N(C)C
2. CN1[C@@H]2C[C@@H](O)C[C@H]1[C@@H]1O[C@@H]12

99.9
102

Need cell viability for each of these compounds.
1. OC(c1ccccc1)C1CCN(CCc2ccccc2)CC1 (stereo not given)
2. Oc1ccc2ccccc2c1

[101, 104]

Need cell viability for each of these compounds.
1. O=C(Nc1cc(C(F)(F)F)cc(C(F)(F)F)c1)Nc1c(Br)cc(Br)cc1-c1nnn[nH]1
2. Cc1nnc2ccc(-c3cccc(C(F)(F)F)c3)nn12
3. COc1cn(-c2ccc(-n3cccn3)cc2F)nc(-c2ccnn2-c2ccccc2)c1=O
4. CCCCCCOc1nsnc1C1=CCCN(C)C1

1. 98.9
2. 94.5
3. 102
4. 92.3

Need cell viability for each of these compounds.
1. CC(C)COC(=O)c1ccc(N)cc1
2. Cc1ccc(C(=O)Nc2cccc(C(F)(F)F)c2)cc1Nc1nc(-c2cccnc2)nc2c1cnn2C
3. CN1C2C=C(c3sccc3Br)CC1CC2 (stereo not given)
4. COc1cc(N)c(Cl)cc1C(=O)NC1CCN(Cc2ccccc2)CC1 [clebopride]
5. CCCCNc1cc(C(=O)O)cc(S(N)(=O)=O)c1Oc1ccccc1 [bumetanide]
6. O=C(NC1CCNCC1)[C@@H]1CC[C@@H]2CN1C(=O)N2OS(=O)(=O)O
7. C/C(=N\NC(=N)N)c1cc(NC(=O)CCCCCCCCC(=O)Nc2cc(/C(C)=N/NC(=N)N)cc(/C(C)=N/NC(=N)N)c2)cc(/C(C)=N/NC(=N)N)c1
8. CN[C@@H](C)C(=O)N[C@H](C(=O)N1CCC[C@H]1C(=O)Nc1sc(-c2ncco2)nc1-c1ccccc1)C1CCCCC1

[99.9, 105, 94.6, 94, 102, 100, 67.6, 92.7]

* * *

system: A549-ACE2; test: drug-induced phospholipidosis relative to tamoxifen; higher = more phospholipidosis; conditions: 10 µM; 24 h
Endpoint: drug-induced phospholipidosis (%)
Give bare numbers, in %.

Please review the following examples before continuing.
>  <Molecule>
COc1ccc2cc1Oc1ccc(cc1)C[C@H]1c3cc(c(OC)cc3CCN1C)Oc1c(OC)c(OC)cc3c1[C@H](C2)N(C)CC3

>  <Endpoint>
drug-induced phospholipidosis

>  <Display unit>
%

>  <Experimental value>
92.7

$$$$
>  <Molecule>
CN1CCN(CCCN2c3ccccc3Sc3ccc(Cl)cc32)CC1

>  <Endpoint>
drug-induced phospholipidosis

>  <Display unit>
%

>  <Experimental value>
92.2

$$$$
>  <Molecule>
C1CCC(C(CC2CCCCN2)C2CCCCC2)CC1 (centres undefined)

>  <Endpoint>
drug-induced phospholipidosis

>  <Display unit>
%

>  <Experimental value>
106

$$$$

Attention now turns to another entry.
Entry CC[C@@]1([C@H]2O[C@H]([C@H]3O[C@@](O)(CO)[C@H](C)C[C@@H]3C)C[C@H]2C)CC[C@H]([C@@]2(C)CC[C@]3(C[C@H](O)[C@@H](C)[C@@H]([C@H](C)[C@H](OC)[C@@H](C)C(=O)O)O3)O2)O1 [MONENSIN SODIUM] — recorded drug-induced phospholipidosis = -4.98

* * *

system: Caco-2; experiment: cell viability relative to DMSO; higher = less toxic; settings: 72 h; 10 nM
Kindly supply the reported cell viability values for the records listed here.
Numbers only, in %.

>  <Compound>
C[n+]1cc2c3c(ccc2c2ccc4cc5c(cc4c21)OCO5)OCO3 [sanguinarium-chloride]

>  <Display unit>
%

>  <cell viability>
103

$$$$
>  <Compound>
C/C(=N\Nc1nnc2c(n1)[nH]c1c(C)cccc12)c1ccccn1

>  <Display unit>
%

>  <cell viability>
101

$$$$

Need cell viability for each of these compounds.
1. O=c1cc(N2CCOCC2)oc2c(-c3ccccc3)cccc12
2. CCn1nc(C2CCN(C(=O)CCO)CC2)nc1-c1cnc(N)c(-c2nnc(C(C)(C)C)o2)n1
3. FC(F)(F)c1ccc(CNc2ccc(Cc3c[nH]c4ncccc34)cn2)cc1
4. CCCN(CCC)CCc1cccc2c1CC(=O)N2
5. Nc1ccc(O)c(C(=O)O)c1
6. CCn1c(-c2nonc2N)nc2cnc(Oc3cccc(NC(=O)c4ccc(OCCN5CCOCC5)cc4)c3)cc21

94.9
93.6
102
108
98.6
98

Given the compound `O=C(NC1CCNCC1)[C@@H]1CC[C@@H]2CN1C(=O)N2OS(=O)(=O)O` and test system Caco-2, the measured cell viability is 108

* * *

test system: HepG2; assay: relative viability EC50 (midpoint between 100% and the lowest measured viability); higher = less toxic; settings: 72 h
Endpoint: relative viability EC50

>  <Molecule>
O=C(O)CNC(=O)c1c(O)c2ccccc2n(Cc2ccccc2)c1=O

>  <relative viability EC50>
> 10 µM

$$$$
>  <Molecule>
N=C(N)NCCC[C@@H](NC(=O)[C@@H]1CCCN1C(=O)[C@@H]1CSSCCC(=O)N[C@@H](Cc2ccc(O)cc2)C(=O)N[C@@H](Cc2ccccc2)C(=O)N[C@@H](CCC(N)=O)C(=O)N[C@@H](CC(N)=O)C(=O)N1)C(=O)NCC(N)=O [desmopressin-acetate]

>  <relative viability EC50>
> 10 µM

$$$$
>  <Molecule>
C1CCC(C(CC2CCCCN2)C2CCCCC2)CC1 (centres undefined)

>  <relative viability EC50>
2.51 µM

$$$$
>  <Molecule>
Nc1ncnc2nc(-c3ccc(N4CCOCC4)nc3)cc(-c3cccc(Br)c3)c12

>  <relative viability EC50>
> 10 µM

$$$$
>  <Molecule>
CCO[C@@H](Cc1ccc(OCCn2c(C)ccc2-c2ccc(SC)cc2)cc1)C(=O)O

>  <relative viability EC50>
> 10 µM

$$$$
>  <Molecule>
O=C(NOCC(O)CO)c1cc(Br)c(F)c(F)c1Nc1ccc(I)cc1F (centres undefined)

>  <relative viability EC50>
0.0645 µM

$$$$
>  <Molecule>
O=C(OCC(O)CO)c1ccccc1Nc1ccnc2c(C(F)(F)F)cccc12 (centres undefined)

>  <relative viability EC50>
> 10 µM

$$$$
>  <Molecule>
O=C(O)c1ccccc1NC(=O)N1CCC(c2ccccc2C(F)(F)F)CC1

>  <relative viability EC50>
> 10 µM

$$$$
>  <Molecule>
O=c1oc2c(O)c(O)cc3c(=O)oc4c(O)c(O)cc1c4c23

>  <relative viability EC50>
> 10 µM

$$$$
>  <Molecule>
O=C(O)c1cccc(-c2noc(-c3ccccc3F)n2)c1

>  <relative viability EC50>
> 10 µM

$$$$

Need relative viability EC50 for each of these molecules.
1. CN(C)CCOc1cc(-c2cn[nH]c2)ccc1NC(=O)C1COc2ccccc2O1 (centres undefined)
2. COc1cc(N)c(Cl)cc1C(=O)NC1CCN(Cc2ccccc2)CC1 [clebopride]

["> 10 µM", "> 10 µM"]

Need relative viability EC50 for each of these molecules.
1. NS(=O)(=O)NCc1csc2ccccc12
2. O=C(O)CCc1nc(-c2ccccc2)c(-c2ccccc2)o1
3. CC(/C=C/C(=O)NO)=C\[C@@H](C)C(=O)c1ccc(N(C)C)cc1

1. > 10 µM
2. > 10 µM
3. 0.194 µM

Need relative viability EC50 for each of these molecules.
1. COc1ccc(CCN)cc1OC
2. Nc1nccs1
3. O=C(O)c1cc(O)c2ccc(Cl)cc2n1
4. CO[C@H]1/C=C/O[C@@]2(C)Oc3c(C)c(O)c4c(O)c(c5c(nc6cc(C)ccn65)c4c3C2=O)NC(=O)/C(C)=C\C=C\[C@H](C)[C@H](O)[C@@H](C)[C@@H](O)[C@@H](C)[C@H](OC(C)=O)[C@@H]1C

> 10 µM
> 10 µM
> 10 µM
> 10 µM
